Values from ChEMBL document CHEMBL1156747

target: Hepatocyte growth factor receptor (Homo sapiens, UniProt P08581); assay: Inhibition of GST-fused recombinant C-met expressed in baculovirus infected high five cells after 30 mins by DELFIA assay
Sequence (P08581 whole entry, the tested form may be a part): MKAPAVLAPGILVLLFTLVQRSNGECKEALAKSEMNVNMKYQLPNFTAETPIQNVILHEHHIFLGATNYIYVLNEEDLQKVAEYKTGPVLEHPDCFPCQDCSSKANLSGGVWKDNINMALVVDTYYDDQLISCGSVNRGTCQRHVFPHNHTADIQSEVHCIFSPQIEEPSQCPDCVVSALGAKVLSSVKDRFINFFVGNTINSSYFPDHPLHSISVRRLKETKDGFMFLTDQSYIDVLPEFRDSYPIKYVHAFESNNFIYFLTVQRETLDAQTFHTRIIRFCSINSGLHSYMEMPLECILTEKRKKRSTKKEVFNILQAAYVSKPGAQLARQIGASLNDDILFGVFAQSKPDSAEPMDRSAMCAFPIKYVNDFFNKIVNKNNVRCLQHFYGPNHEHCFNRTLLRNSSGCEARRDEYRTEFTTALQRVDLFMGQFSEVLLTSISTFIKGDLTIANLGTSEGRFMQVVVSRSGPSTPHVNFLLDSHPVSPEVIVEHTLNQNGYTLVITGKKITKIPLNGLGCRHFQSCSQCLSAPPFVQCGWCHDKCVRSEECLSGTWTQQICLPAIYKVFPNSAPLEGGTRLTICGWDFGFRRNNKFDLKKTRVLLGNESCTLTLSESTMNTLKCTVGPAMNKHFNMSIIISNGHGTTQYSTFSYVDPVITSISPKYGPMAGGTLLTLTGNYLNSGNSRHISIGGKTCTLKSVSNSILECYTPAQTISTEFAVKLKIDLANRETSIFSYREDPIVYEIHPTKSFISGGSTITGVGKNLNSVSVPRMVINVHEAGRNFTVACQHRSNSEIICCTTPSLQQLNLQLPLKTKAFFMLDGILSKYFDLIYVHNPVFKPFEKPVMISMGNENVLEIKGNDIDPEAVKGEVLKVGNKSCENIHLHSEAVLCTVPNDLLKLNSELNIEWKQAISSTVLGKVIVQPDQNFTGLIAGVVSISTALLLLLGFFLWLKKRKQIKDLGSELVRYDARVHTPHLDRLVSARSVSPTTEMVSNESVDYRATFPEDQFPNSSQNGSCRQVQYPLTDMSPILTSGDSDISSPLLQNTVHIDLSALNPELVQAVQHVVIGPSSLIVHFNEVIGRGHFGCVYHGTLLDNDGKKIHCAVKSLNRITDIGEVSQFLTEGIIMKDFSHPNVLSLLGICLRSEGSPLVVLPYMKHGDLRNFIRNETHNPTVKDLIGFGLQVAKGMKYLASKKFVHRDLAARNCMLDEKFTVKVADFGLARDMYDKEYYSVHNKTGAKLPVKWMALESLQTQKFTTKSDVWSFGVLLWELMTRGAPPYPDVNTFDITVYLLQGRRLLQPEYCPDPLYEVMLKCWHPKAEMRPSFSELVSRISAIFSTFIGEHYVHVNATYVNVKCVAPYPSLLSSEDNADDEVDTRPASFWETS
measurement.label: IC50 (nM)

{"mol.smiles": "Cn1ccnc1C(=O)c1cc2nccc(Oc3ccc(NC(=O)CC(=O)Nc4ccccc4)cc3F)c2s1", "number": 36}

I. CCn1cnc(-c2cc3nccc(Oc4ccc(NC(=O)CC(=O)Nc5ccccc5C(F)(F)F)cc4F)c3s2)c1
II. CCn1cnc(-c2cc3nccc(Oc4ccc(NC(=O)CC(=O)NC5CCCCC5)cc4F)c3s2)c1
Lab notebook, comparison: I versus II , higher IC50 goes to which? Respond using the label that marks the chosen record.
I
